tested on: Mast cell (Rattus norvegicus); test: Histamine release in mast cells by ELISA
Numbered stars: 1 amine (or outer) side, 2 acyl side, 3 side chain; on linkers, the order of the positions; unused ones are H or OH. Square brackets hold non-standard residues; d marks the D form. Side chains are listed from the residue outwards. Peptide text beside a SMILES is read from it. * marks the point of attachment. dPhe(4-NHCONH2) = NC(=O)Nc1ccc(C[C@@H](N)C(=O)O)cc1; dPhe(4-Cl) = N[C@H](Cc1ccc(Cl)cc1)C(=O)O; Phe(4-NH2) = Nc1ccc(C[C@H](N)C(=O)O)cc1; d2Nal = N[C@H](Cc1ccc2ccccc2c1)C(=O)O; Lys(iPr) = CC(C)NCCCC[C@H](N)C(=O)O; NHCH2CH2OCH2CH2OEt = CCOCCOCCN*; d3Pal = N[C@H](Cc1cccnc1)C(=O)O; CO = O=C([*:1])[*:2]
Property: EC50 (µg/mL)
Respond numerically; units are µg/mL and should not be typed.

Ask: Would you mind telling me what EC50 value was observed for CCOCCOCCNC(=O)Nc1ccc(C[C@H](NC(=O)[C@H](CO)NC(=O)[C@@H](Cc2cccnc2)NC(=O)[C@@H](Cc2ccc(Cl)cc2)NC(=O)[C@@H](Cc2ccc3ccccc3c2)NC(C)=O)C(=O)N[C@H](Cc2ccc(NC(N)=O)cc2)C(=O)N[C@@H](CC(C)C)C(=O)N[C@@H](CCCCNC(C)C)C(=O)N2CCC[C@H]2C(=O)N[C@H](C)C(N)=O)cc1 (Ac-[d2Nal][dPhe(4-Cl)][d3Pal]S[Phe(4-NH2)]([CO-NHCH2CH2OCH2CH2OEt])[dPhe(4-NHCONH2)]L[Lys(iPr)]P[dA]-NH2) ?
Reply: 910

----------
Can you tell me IC50 for the items I'm about to list?
target: UniProt P30968; test: Antagonist activity at human GnRH receptor expressed in HEK293 cells as inhibition of GnRH-induced LH secretion by reporter gene assay
Respond numerically; units are nM and should not be typed.

Ask: Would you mind telling me what IC50 value was observed for CCOCCOCCNC(=O)Nc1ccc(C[C@@H](NC(=O)[C@H](Cc2ccc(NC(=O)[C@@H]3CC(=O)NC(=O)N3)cc2)NC(=O)[C@H](CO)NC(=O)[C@@H](Cc2cccnc2)NC(=O)[C@@H](Cc2ccc(Cl)cc2)NC(=O)[C@@H](Cc2ccc3ccccc3c2)NC(=O)NCCOCCOCC)C(=O)N[C@@H](CC(C)C)C(=O)N[C@@H](CCCCNC(C)C)C(=O)N2CCC[C@H]2C(=O)N[C@H](C)C(N)=O)cc1 ?
Reply: 4.55

Ask: Now try CONC(=O)Nc1ccc(C[C@H](NC(=O)[C@H](CO)NC(=O)[C@@H](CCC(N)=O)NC(=O)[C@@H](Cc2ccc(Cl)cc2)NC(=O)[C@@H](Cc2ccc3ccccc3c2)NC(C)=O)C(=O)N[C@H](Cc2ccc(NC(=O)NOC)cc2)C(=O)N[C@@H](CC(C)C)C(=O)N[C@@H](CCCCNC(C)C)C(=O)N2CCC[C@H]2C(=O)N[C@H](C)C(N)=O)cc1 .
Reply: 2.98

Ask: Now try CCOCCOCCNC(=O)Nc1ccc(C[C@H](NC(=O)[C@H](CO)NC(=O)[C@@H](Cc2cccnc2)NC(=O)[C@@H](Cc2ccc(Cl)cc2)NC(=O)[C@@H](Cc2ccc3ccccc3c2)NC(=O)NCCOCCOCC)C(=O)N[C@H](Cc2ccc(NC(N)=O)cc2)C(=O)N[C@@H](CC(C)C)C(=O)N[C@@H](CCCCNC(C)C)C(=O)N2CCC[C@H]2C(=O)N[C@H](C)C(N)=O)cc1 .
Reply: 1.12

Ask: Now try CONC(=O)NCCOCCOCCOCCOCCOCCOCCC(=O)Nc1ccc(C[C@@H](NC(=O)[C@H](Cc2ccc(NC(=O)NOC)cc2)NC(=O)[C@H](CO)NC(=O)[C@@H](Cc2cccnc2)NC(=O)[C@@H](Cc2ccc(Cl)cc2)NC(=O)[C@@H](Cc2ccc3ccccc3c2)NC(C)=O)C(=O)N[C@@H](CC(C)C)C(=O)N[C@@H](CCCCNC(C)C)C(=O)N2CCC[C@H]2C(=O)N[C@H](C)C(N)=O)cc1 .
Reply: 1.67

Ask: Now try CCCCCCCC(=O)N[C@H](Cc1ccc2ccccc2c1)C(=O)N[C@H](Cc1ccc(Cl)cc1)C(=O)N[C@H](Cc1cccnc1)C(=O)N[C@@H](CO)C(=O)N[C@@H](Cc1ccc(NC(=O)[C@@H]2CC(=O)NC(=O)N2)cc1)C(=O)N[C@H](Cc1ccc(NC(=O)NOC)cc1)C(=O)N[C@@H](CC(C)C)C(=O)N[C@@H](CCCCNC(C)C)C(=O)N1CCC[C@H]1C(=O)N[C@H](C)C(N)=O .
Reply: 9.47

Ask: Now try CONC(=O)Nc1ccc(C[C@H](NC(=O)[C@H](CO)NC(=O)[C@@H](Cc2cccnc2)NC(=O)[C@@H](Cc2ccc(Cl)cc2)NC(=O)[C@@H](Cc2ccc3ccccc3c2)NC(C)=O)C(=O)N[C@H](Cc2ccc(NC(=O)NOC)cc2)C(=O)N[C@@H](CC(C)C)C(=O)N[C@@H](CCCNC(=O)CNC(C)C)C(=O)N2CCC[C@H]2C(=O)N[C@H](C)C(N)=O)cc1 .
Reply: 1.53

----------
biological target: UniProtKB P30968; assay: Antagonist activity at human GnRH receptor expressed in HEK293 cells as inhibition of GnRH-induced LH secretion by reporter gene assay
Numbered stars: 1 amine (or outer) side, 2 acyl side, 3 side chain; on linkers, the order of the positions; unused ones are H or OH. Square brackets hold non-standard residues; d marks the D form. Side chains are listed from the residue outwards. Peptide text beside a SMILES is read from it. * marks the point of attachment. Dihydroorotyl(S) = O=C1C[C@@H](C(=O)*)NC(=O)N1; dPhe(4-NH2) = Nc1ccc(C[C@@H](N)C(=O)O)cc1; dPhe(4-Cl) = N[C@H](Cc1ccc(Cl)cc1)C(=O)O; Phe(4-NH2) = Nc1ccc(C[C@H](N)C(=O)O)cc1; d2Nal = N[C@H](Cc1ccc2ccccc2c1)C(=O)O; Lys(iPr) = CC(C)NCCCC[C@H](N)C(=O)O; NHCH2CH2OCH2CH2OEt = CCOCCOCCN*; d3Pal = N[C@H](Cc1cccnc1)C(=O)O; CO = O=C([*:1])[*:2]
Property: IC50 (nM)
Respond numerically; units are nM and should not be typed.

Ask: Would you mind telling me what IC50 value was observed for CCCCCCCC(=O)N[C@H](Cc1ccc2ccccc2c1)C(=O)N[C@H](Cc1ccc(Cl)cc1)C(=O)N[C@H](Cc1cccnc1)C(=O)N[C@@H](CO)C(=O)N[C@@H](Cc1ccc(NC(=O)NOC)cc1)C(=O)N[C@H](Cc1ccc(NC(N)=O)cc1)C(=O)N[C@@H](CC(C)C)C(=O)N[C@@H](CCCCNC(C)C)C(=O)N1CCC[C@H]1C(=O)N[C@H](C)C(N)=O ?
Reply: 4.17

Ask: Now try CC(=O)N[C@H](Cc1ccc2ccccc2c1)C(=O)N[C@H](Cc1ccc(Cl)cc1)C(=O)N[C@H](CNC(=O)NO)C(=O)N[C@@H](CO)C(=O)N[C@@H](Cc1ccc(NC(=O)[C@@H]2CC(=O)NC(=O)N2)cc1)C(=O)N[C@H](Cc1ccc(NC(N)=O)cc1)C(=O)N[C@@H](CC(C)C)C(=O)N[C@@H](CCCCNC(C)C)C(=O)N1CCC[C@H]1C(=O)N[C@H](C)C(N)=O .
Reply: 3.46

Ask: Now try CCOCCOCCNC(=O)Nc1ccc(C[C@@H](NC(=O)[C@H](Cc2ccc(NC(=O)[C@@H]3CC(=O)NC(=O)N3)cc2)NC(=O)[C@H](CO)NC(=O)[C@@H](Cc2cccnc2)NC(=O)[C@@H](Cc2ccc(Cl)cc2)NC(=O)[C@@H](Cc2ccc3ccccc3c2)NC(C)=O)C(=O)N[C@@H](CC(C)C)C(=O)N[C@@H](CCCCNC(C)C)C(=O)N2CCC[C@H]2C(=O)N[C@H](C)C(N)=O)cc1 (Ac-[d2Nal][dPhe(4-Cl)][d3Pal]S[Phe(4-NH2)](Dihydroorotyl(S))[dPhe(4-NH2)]([CO-NHCH2CH2OCH2CH2OEt])L[Lys(iPr)]P[dA]-NH2) .
Reply: 0.88

----------
target: Gonadotropin-releasing hormone receptor (Homo sapiens); assay: Antagonist activity at human GnRH receptor expressed in HEK293 cells as inhibition of GnRH-induced LH secretion by reporter gene assay
Sequence (P30968 whole entry): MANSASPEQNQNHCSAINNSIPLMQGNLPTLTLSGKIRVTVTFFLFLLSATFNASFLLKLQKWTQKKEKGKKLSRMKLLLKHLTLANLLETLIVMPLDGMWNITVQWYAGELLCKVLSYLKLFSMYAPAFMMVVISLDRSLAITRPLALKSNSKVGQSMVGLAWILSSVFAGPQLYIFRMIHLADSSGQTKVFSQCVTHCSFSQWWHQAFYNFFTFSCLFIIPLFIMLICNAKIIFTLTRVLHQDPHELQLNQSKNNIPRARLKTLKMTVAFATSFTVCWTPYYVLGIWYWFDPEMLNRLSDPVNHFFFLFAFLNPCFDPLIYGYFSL
Property: IC50 (nM)
Respond numerically; units are nM and should not be typed.

Ask: Would you mind telling me what IC50 value was observed for CONC(=O)Nc1ccc(C[C@@H](NC(=O)[C@H](Cc2ccc(NC(=O)NOC)cc2)N(C)C(=O)[C@H](CO)NC(=O)[C@@H](Cc2cccnc2)NC(=O)[C@@H](Cc2ccc(Cl)cc2)NC(=O)[C@@H](Cc2ccc3ccccc3c2)NC(C)=O)C(=O)N[C@@H](CC(C)C)C(=O)N[C@@H](CCCCNC(C)C)C(=O)N2CCC[C@H]2C(=O)N[C@H](C)C(N)=O)cc1 ?
Reply: 0.7

Ask: Now try CCCCCCCC(=O)N[C@H](Cc1ccc2ccccc2c1)C(=O)N[C@H](Cc1ccc(Cl)cc1)C(=O)N[C@H](Cc1cccnc1)C(=O)N[C@@H](CO)C(=O)N[C@@H](Cc1ccc(NC(=O)NOC)cc1)C(=O)N[C@H](Cc1ccc(NC(=O)NOC)cc1)C(=O)N[C@@H](CC(C)C)C(=O)N[C@@H](CCCCNC(C)C)C(=O)N1CCC[C@H]1C(=O)N[C@H](C)C(N)=O .
Reply: 4.99

Ask: Now try CONC(=O)NC[C@@H](NC(=O)[C@@H](Cc1ccc(Cl)cc1)NC(=O)[C@@H](Cc1ccc2ccccc2c1)NC(C)=O)C(=O)N[C@@H](CO)C(=O)N[C@@H](Cc1ccc(NC(=O)[C@@H]2CC(=O)NC(=O)N2)cc1)C(=O)N[C@H](Cc1ccc(NC(N)=O)cc1)C(=O)N[C@@H](CC(C)C)C(=O)N[C@@H](CCCCNC(C)C)C(=O)N1CCC[C@H]1C(=O)N[C@H](C)C(N)=O .
Reply: 3.16
